Target or system Serine/threonine-protein kinase PAK 1 (Homo sapiens); metric IC50; compiled from varied reports.

Examples with their reported IC50 follow.
CCN1CCC(c2ccc(Nc3ncc4cc(-c5ccc(-c6cccnc6)cc5Cl)c(=O)n(CC)c4n3)cc2F)CC1	< 50 nM
Cc1ncc(-c2cc(Cl)c(-c3cc4cnc(Nc5ccc(C6CCN(C)CC6)cc5)nc4n(C)c3=O)cc2F)s1	< 50 nM
Cc1noc(-c2ccccc2Cn2c(=O)ccc3cnc(Nc4ccc(N5CCN(C)CC5)cc4)nc32)n1	< 1000 nM
CCn1c(=O)c(-c2ccc(-c3ccoc3)cc2Cl)cc2cnc(Nc3ccc(N4CCN(C)CC4)cc3)nc21	< 50 nM
CCn1c(=O)c(-c2ccc(-c3nnco3)cc2Cl)cc2cnc(Nc3ccc(N4CCN(C)CC4)cc3)nc21	< 50 nM

Asked: Param item = CC(C)CNc1ccc(-c2ccnc(Nc3ccc(N4CCN(C)CC4)cc3)n2)cn1 ; retrieve measured IC50.
Given back: 1000 to 10000 nM

Asked: How about CCN1CCN(c2ccc(Nc3ncc4cc(-c5ccc(-c6cccnc6)cc5Cl)c(=O)n(CC)c4n3)cc2)CC1 ?
Given back: < 50 nM

Asked: Then this compound: CN1CCN(c2ccc(Nc3ncc4ccc(=O)n(Cc5c(Cl)cccc5-c5ccccc5)c4n3)cc2)CC1
Given back: 1000 to 10000 nM

Asked: What do you get for CN1CCN(c2ccc(Nc3ncc4ccc(=O)n(Cc5c(O)cccc5Br)c4n3)cc2)CC1 ?
Given back: < 1000 nM

Asked: Lookup CN1CCN(c2cccc(Nc3nccc(-c4ccc(NCCN)nc4)n3)c2)CC1
Given back: 1000 to 10000 nM

Asked: Also CCn1c(=O)c(-c2ccc(-c3ccc(C)nc3F)cc2Cl)cc2cnc(Nc3ccc(C4CCN(C)CC4)cc3)nc21 , if possible.
Given back: < 50 nM

Asked: What do we get for CCn1c(=O)c(-c2ccc(-c3cccnc3C)nc2)cc2cnc(Nc3ccc(C4CCN(C)CC4)cc3)nc21 ?
Given back: > 5000 nM

Asked: Follow-up entry: CCn1c(=O)c(-c2ccc(C3CC3)cc2)cc2cnc(Nc3ccc(N4CCN(C)CC4)cc3)nc21
Given back: 50 to 500 nM
